target: Casein kinase I isoform gamma-1 (Homo sapiens); conditions: at 1 µM;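 note: reported value is the mean inhibition of CK1 gamma-1 kinase activity across replicate measurements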
# cutoff 2% applies to inhibition; >= gives met, < gives not met

[[record]]
entry_smiles = "CCS(=O)(=O)c1ccc(OC)c(Nc2nccc(N(C)c3ccc4c(C)n[nH]c4c3)n2)c1"
label_class = "met"

[[record]]
entry_smiles = "CC(C)c1ccc2c(c1)NC(=O)/C2=N/Nc1ccc(S(N)(=O)=O)cc1"
label_class = "not met"

[[record]]
entry_smiles = "C[C@@H](Oc1cc(-n2cnc3ccc(OC[C@@H](O)CO)cc32)sc1C(N)=O)c1ccccc1Cl"
label_class = "met"

[[record]]
entry_smiles = "Nc1nccc(-c2c(-c3ccc(F)cc3)nn3cc(C(F)(F)F)ccc23)n1"
label_class = "met"

[[record]]
entry_smiles = "COc1cc2ncnc(Nc3ccc(C)c(O)c3)c2cc1OC"
label_class = "met"

[[record]]
entry_smiles = "Cc1ccc(NC(=O)CC2CC2)cc1-c1ccc(C(=O)NCC2CC2)cc1"
label_class = "met"

[[record]]
entry_smiles = "Cc1ccc2c(-c3ccnc(Nc4cccc(C(F)(F)F)c4)n3)c(-c3ccccc3)nn2n1"
label_class = "met"

[[record]]
entry_smiles = "COc1cc2ncnc(Nc3ccc4c(cnn4Cc4ccccc4)c3)c2cc1OC"
label_class = "met"

[[record]]
entry_smiles = "O=C1Nc2ccccc2/C1=C/Nc1ccc2[nH]c(=O)[nH]c2c1"
label_class = "met"

[[record]]
entry_smiles = "CN1CCN(C(=O)c2ccc(NC(=O)Nc3ccc(N(C)c4ccnc(Nc5ccc(CS(C)(=O)=O)cc5)n4)cc3)cc2)CC1"
label_class = "met"

[[record]]
entry_smiles = "Cc1cc(Cl)cc2c1NC(=O)C2=NNc1ccc(S(N)(=O)=O)cc1"
label_class = "not met"

[[record]]
entry_smiles = "[O-][S+]1CCN(Cc2ccc(-c3ccc4ncnc(Nc5ccc(OCc6ccccc6)c(Cl)c5)c4c3)o2)CC1"
label_class = "met"

[[record]]
entry_smiles = "CCn1c(-c2nonc2N)nc2ccc(F)cc21"
label_class = "met"


Ref: ChEMBL document CHEMBL1961873
